- Test system: MCF-7 human breast cancer cells
- protocol-details: In vitro cytotoxicity (MTT assay) in MCF-7 cells with or without NTR
- Format: cell-based
- conditions-used: MCF-7, selectivity ratio
- Experimental: The cytotoxicity of the target compounds 1c–6c were evaluated in MCF-7 human breast cancer cells and HT29 human colon cancer cells. These two cell lines were chosen because 5′-DFUR is currently used to treat breast and gastrointestinal tumors. The cells were incubated with the target compounds at various concentrations for 24 h in the presence or absence of NTR. The cell viability and proliferation behavior were assessed by 3-(4,5-dimethylthiazol-2-yl)-2,5-diphenyltetrazolium (MTT) assay. […]
Collected IC50 (NTR-Free)/ IC50 (NTR) values appear next to each entry.
Please respond with just the number, no unit label.

> print(dat)
                                   molecule  observed
1  C[C@H]1O[C@@H](n2cc(F)c(=O)n(Cc3cccs3)c2=O)[C@H](O)[C@@H]1O      0.99

Answer with IC50 (NTR-Free)/ IC50 (NTR) of C[C@H]1O[C@@H](n2cc(F)c(=O)n(Cc3ccc([N+](=O)[O-])cc3)c2=O)[C@H](O)[C@@H]1O measured for MCF-7 human breast cancer cells. 4.42

Answer with IC50 (NTR-Free)/ IC50 (NTR) of C[C@H]1O[C@@H](n2cc(F)c(=O)n(Cc3ccc([N+](=O)[O-])o3)c2=O)[C@H](O)[C@@H]1O measured for MCF-7 human breast cancer cells. 4.99

Answer with IC50 (NTR-Free)/ IC50 (NTR) of C[C@H]1O[C@@H](n2cc(F)c(=O)n(Cc3ccco3)c2=O)[C@H](O)[C@@H]1O measured for MCF-7 human breast cancer cells. 0.97

Answer with IC50 (NTR-Free)/ IC50 (NTR) of C[C@H]1O[C@@H](n2cc(F)c(=O)[nH]c2=O)[C@H](O)[C@@H]1O [5′-DFUR, 5′-deoxy-5-fluorouridine, reference compound] measured for MCF-7 human breast cancer cells. 0.96

Answer with IC50 (NTR-Free)/ IC50 (NTR) of C[C@H]1O[C@@H](n2cc(F)c(=O)n(Cc3ccc([N+](=O)[O-])s3)c2=O)[C@H](O)[C@@H]1O measured for MCF-7 human breast cancer cells. 4.52

Answer with IC50 (NTR-Free)/ IC50 (NTR) of C[C@H]1O[C@@H](n2cc(F)c(=O)n(Cc3ccccc3)c2=O)[C@H](O)[C@@H]1O measured for MCF-7 human breast cancer cells. 0.92

====

Collected half-life at 50 µM values appear next to each entry.
- test-system: NTR (Escherichia coli, UniProt P38489)
- Construct: host or cells: Escherichia coli
- Sequence (P38489 whole entry): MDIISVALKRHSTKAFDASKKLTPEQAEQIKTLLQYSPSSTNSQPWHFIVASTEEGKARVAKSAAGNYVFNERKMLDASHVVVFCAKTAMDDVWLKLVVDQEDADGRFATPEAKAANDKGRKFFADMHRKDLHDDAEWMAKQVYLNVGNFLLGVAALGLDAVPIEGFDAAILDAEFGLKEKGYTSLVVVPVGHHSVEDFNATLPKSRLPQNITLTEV
- protocol-details: In vitro release evaluation: incubation with NTR and NADH, HPLC of derivative and released 5′-DFUR
- Assay type: biochemical
- conditions-used: Escherichia coli; 50 µM compound, NTR 50 µg/mL, NADH 2 mM, PBS pH 7.4, 37 °C; read-out: half-life in the presence of NTR (converted)
Report the figure in min without appending any unit label.

> print(dat)
                                   compound                             test.system  observed
1  C[C@H]1O[C@@H](n2cc(F)c(=O)n(Cc3ccc([N+](=O)[O-])s3)c2=O)[C@H](O)[C@@H]1O [Compound 3c]  NTR (Escherichia coli, UniProt P38489)        60

Query half-life at 50 µM for C[C@H]1O[C@@H](n2cc(F)c(=O)n(Cc3ccc([N+](=O)[O-])cc3)c2=O)[C@H](O)[C@@H]1O [Compound 1c] 78

Query half-life at 50 µM for C[C@H]1O[C@@H](n2cc(F)c(=O)n(Cc3ccc([N+](=O)[O-])o3)c2=O)[C@H](O)[C@@H]1O [Compound 2c] 36

====

Collected IC50 values appear next to each entry.
- System: HT29 human colon cancer cells
- protocol-details: In vitro cytotoxicity (MTT assay) in HT29 cells with or without NTR
- Format: cell-based
- conditions-used: Homo sapiens, HT-29; HT29, 24 h, medium without NTR, MTT; read-out: IC50 NTR-Free
Report the figure in µM without appending any unit label.

Query IC50 for C[C@H]1O[C@@H](n2cc(F)c(=O)n(Cc3ccc([N+](=O)[O-])cc3)c2=O)[C@H](O)[C@@H]1O 584

Query IC50 for C[C@H]1O[C@@H](n2cc(F)c(=O)n(Cc3cccs3)c2=O)[C@H](O)[C@@H]1O 474

Query IC50 for C[C@H]1O[C@@H](n2cc(F)c(=O)n(Cc3ccco3)c2=O)[C@H](O)[C@@H]1O 459

====

- Test system: HT29 human colon cancer cells
- protocol-details: In vitro cytotoxicity (MTT assay) in HT29 cells with or without NTR
- Format: cell-based
- conditions-used: Homo sapiens, HT-29; HT29, 24 h, medium without NTR, MTT; read-out: IC50 NTR-Free
Collected IC50 values appear next to each entry.
Report the figure in µM without appending any unit label.

> print(dat)
                                   molecule  observed
1  C[C@H]1O[C@@H](n2cc(F)c(=O)n(Cc3ccc([N+](=O)[O-])s3)c2=O)[C@H](O)[C@@H]1O       457
2  C[C@H]1O[C@@H](n2cc(F)c(=O)n(Cc3ccc([N+](=O)[O-])o3)c2=O)[C@H](O)[C@@H]1O       437
3  C[C@H]1O[C@@H](n2cc(F)c(=O)[nH]c2=O)[C@H](O)[C@@H]1O [5′-DFUR, 5′-deoxy-5-fluorouridine, reference compound]      50.4

Pending molecule:
Query IC50 for C[C@H]1O[C@@H](n2cc(F)c(=O)n(Cc3ccccc3)c2=O)[C@H](O)[C@@H]1O 621

Values were extracted from paper PMC11547703.
